Target desc: 11-beta-hydroxysteroid dehydrogenase 1 (Mus musculus, UniProt P50172)
Sequence (P50172 whole entry): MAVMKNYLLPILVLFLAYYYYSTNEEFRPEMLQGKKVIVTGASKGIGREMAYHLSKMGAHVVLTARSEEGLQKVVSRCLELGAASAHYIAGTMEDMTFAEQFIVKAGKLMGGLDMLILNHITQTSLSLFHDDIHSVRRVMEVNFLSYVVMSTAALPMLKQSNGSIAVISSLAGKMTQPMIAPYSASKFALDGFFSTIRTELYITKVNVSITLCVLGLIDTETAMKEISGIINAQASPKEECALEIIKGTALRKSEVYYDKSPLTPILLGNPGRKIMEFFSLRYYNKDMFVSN
Assay readout: pKi
Field pKi (float): negative decimal logarithm of the concentration in molar.

Recorded pKi for "CC(C)[C@]1(C)SC(N[C@H]2C[C@H]3C[C@@H]2C[C@@H]3O)=NC1=O" with 11-beta-hydroxysteroid dehydrogenase 1 (Mus musculus, UniProt P50172), please? 6.82

---

Protocol notes: Plasma concentration in mouse at 10 mg/kg, po after 2 hrs
Type: ADME, organism-based
Set-up: dose 10 mg/kg, route oral
Assay readout: concentration at 2 h (µM)
Value expressed in µM; do not type the unit.

Look up concentration at 2 h: "CC(C)[C@]1(C)SC(N[C@H]2C[C@H]3C[C@@H]2C[C@@H]3O)=NC1=O" 4.5
